Origin of values: paper PMC3817407

Molecular target: T1, ECF27_4265
T1 chain: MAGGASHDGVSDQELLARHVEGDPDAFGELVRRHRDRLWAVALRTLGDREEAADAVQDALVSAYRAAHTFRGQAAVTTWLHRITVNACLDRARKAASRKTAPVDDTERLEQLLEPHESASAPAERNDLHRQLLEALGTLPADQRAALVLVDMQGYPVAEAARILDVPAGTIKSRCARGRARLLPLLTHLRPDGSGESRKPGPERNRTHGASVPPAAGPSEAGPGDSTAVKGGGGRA
measure: fold repression

{"columns": ["binder", "quantitative result"],
 "data": [
  ["AS27_1331 (protein) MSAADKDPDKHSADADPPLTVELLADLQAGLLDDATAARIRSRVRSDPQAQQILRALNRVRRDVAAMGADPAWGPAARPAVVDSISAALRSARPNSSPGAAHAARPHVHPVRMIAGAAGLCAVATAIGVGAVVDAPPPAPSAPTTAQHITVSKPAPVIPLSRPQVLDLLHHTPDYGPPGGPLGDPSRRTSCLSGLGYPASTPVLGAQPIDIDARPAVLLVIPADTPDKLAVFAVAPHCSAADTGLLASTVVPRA", 5.34],
  ["AS16_3622 (protein) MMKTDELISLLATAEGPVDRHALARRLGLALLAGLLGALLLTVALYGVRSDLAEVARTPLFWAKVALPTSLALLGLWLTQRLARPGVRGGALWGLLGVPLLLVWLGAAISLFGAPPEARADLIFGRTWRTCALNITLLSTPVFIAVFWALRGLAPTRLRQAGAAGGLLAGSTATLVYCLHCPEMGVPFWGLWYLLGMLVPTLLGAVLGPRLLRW", 1.45]
]}
